Cited source: patent US20250382344A1

TESTED_ON: T1, human neuropeptide Y2 receptor (human, UniProt P49146 1-381)
T1 sequence (looked up): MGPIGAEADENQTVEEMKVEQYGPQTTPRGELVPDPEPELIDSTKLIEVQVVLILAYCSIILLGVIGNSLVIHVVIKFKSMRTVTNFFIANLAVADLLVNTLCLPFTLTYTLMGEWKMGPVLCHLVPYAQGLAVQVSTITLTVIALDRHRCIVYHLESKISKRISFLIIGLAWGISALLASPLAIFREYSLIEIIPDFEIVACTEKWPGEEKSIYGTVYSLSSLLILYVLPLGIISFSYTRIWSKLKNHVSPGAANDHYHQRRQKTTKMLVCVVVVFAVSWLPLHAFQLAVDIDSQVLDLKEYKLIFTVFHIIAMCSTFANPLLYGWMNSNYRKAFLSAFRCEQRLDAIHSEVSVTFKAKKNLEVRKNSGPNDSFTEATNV
ASSAY_PROTOCOL: cell-based or functional assay
*1 amine or outer side, *2 acyl side, *3 side chain or, on linkers, in order; H or OH if unused. Where no end group is shown, it is not given here. Side-chain parts run from the residue outwards. [ ]: non-standard residue; d: D form. The star is where a group is joined. C20 diacid = O=C(O)CCCCCCCCCCCCCCCCCCC(=O)*; C18 diacid = O=C(O)CCCCCCCCCCCCCCCCC(=O)*; γGlu = O=C(O)[C@H](CCC(=O)[*:2])N[*:1]; NMeQ = CN[C@@H](CCC(N)=O)C(=O)O; TRX = not defined here; AEEA = NCCOCCOCC(=O)O; Aib = CC(C)(N)C(=O)O
PROPERTY_NAME: EC50, CreLuc reporter, 100% hP

BINDER	MEASUREMENT
Y[Aib]EGTFTSDYSIALEKQAQ[Aib]AFVRHLINK([γGlu-γGlu-γGlu-γGlu-γGlu-γGlu-C20 diacid])[Aib]TRQRY-NH2 [Compound 29]	180 nM

Query: Provide one value: measured EC50, CreLuc reporter, 100% hP of YXEGTFTSDYSIXLEKQAQXAFIRHLINKXTRQRY (Aib at 2, 20, 30; aMeL at 13; Lys29 epsilon-amino acylated with C18DA-gGlu-gGlu-gGlu-gGlu-gGlu-gGlu-eLys; C-terminal amide) [Compound 76]
Response: 24.3 nM

Query: Quickly give me recorded EC50, CreLuc reporter, 100% hP for Y[Aib]EGTFTSDYSI[Aib]LEKQAQ[Aib]EFVRHLINK([AEEA-AEEA-γGlu-γGlu-γGlu-γGlu-C18 diacid])[Aib]TRQRY-NH2 [Compound 73]
Response: 136 nM

Query: Please report EC50, CreLuc reporter, 100% hP for the following binder: Y[Aib]EGTFTSDYSI[Aib]LEKQAQ[Aib]AFVRHLINK([γGlu-γGlu-γGlu-γGlu-γGlu-γGlu-TRX-C18 diacid])[Aib]TRQRY-NH2 (reading uncertain) [Compound 31]
Response: 131 nM

Query: Input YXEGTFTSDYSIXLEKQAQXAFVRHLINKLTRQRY (Aib at 2, 13, 20; Lys29 epsilon-amino acylated with C18DA-gGlu-gGlu-gGlu-gGlu-gGlu-OEG; C-terminal amide) [Compound 7] , output reported EC50, CreLuc reporter, 100% hP.
Response: 80.6 nM

Query: Check the records and state EC50, CreLuc reporter, 100% hP for Y[Aib]EGTFTSDYSI[Aib]LEKQAQ[Aib]AFVRHLINK([γGlu-γGlu-γGlu-γGlu-γGlu-γGlu-C18 diacid])[Aib]TR[NMeQ]RY-NH2 [Compound 2]
Response: 258 nM

Query: For the binder Y[Aib]EGTFTSDYSI[Aib]LEEEAQ[Aib]EFVRHLINK([γGlu-γGlu-γGlu-γGlu-C18 diacid])[Aib]TRQRY-NH2 [Compound 64] , give its measured EC50, CreLuc reporter, 100% hP value.
Response: 720 nM

Query: Output measured EC50, CreLuc reporter, 100% hP for this item: YXEGTFTSDYSIXLEKQAQXEFVRHLINKXTRQRY (Aib at 2, 13, 20, 30; Lys29 epsilon-amino acylated with C18DA-gGlu-gGlu-gGlu-gGlu-gGlu-AHX; C-terminal amide) [Compound 14]
Response: 388 nM

Query: Consider the binder YXEGTFTSDYSIXLEQQAQXAFVRHLINKXTRQRY (Aib at 2, 13, 20, 30; Lys29 epsilon-amino acylated with C18DA-gGlu-gGlu-gGlu-gGlu-gGlu; C-terminal amide) [Compound 42] . State its measured EC50, CreLuc reporter, 100% hP.
Response: 704 nM

Query: State, in one line, measured EC50, CreLuc reporter, 100% hP of Y[Aib]EGTFTSDYSI[Aib]LEEEAQ[Aib]AFVRHLINK([γGlu-γGlu-γGlu-γGlu-C18 diacid])[Aib]TRQRY-NH2 [Compound 25]
Response: 437 nM
